Molecular target: ALK4 (Homo sapiens, UniProt P36896)
Construct: purchased Life technology (Fredrick, Md.) and/or CARNA BIOSCIENCES Inc. (Kobe, Japan)
Sequence (P36896 24-505): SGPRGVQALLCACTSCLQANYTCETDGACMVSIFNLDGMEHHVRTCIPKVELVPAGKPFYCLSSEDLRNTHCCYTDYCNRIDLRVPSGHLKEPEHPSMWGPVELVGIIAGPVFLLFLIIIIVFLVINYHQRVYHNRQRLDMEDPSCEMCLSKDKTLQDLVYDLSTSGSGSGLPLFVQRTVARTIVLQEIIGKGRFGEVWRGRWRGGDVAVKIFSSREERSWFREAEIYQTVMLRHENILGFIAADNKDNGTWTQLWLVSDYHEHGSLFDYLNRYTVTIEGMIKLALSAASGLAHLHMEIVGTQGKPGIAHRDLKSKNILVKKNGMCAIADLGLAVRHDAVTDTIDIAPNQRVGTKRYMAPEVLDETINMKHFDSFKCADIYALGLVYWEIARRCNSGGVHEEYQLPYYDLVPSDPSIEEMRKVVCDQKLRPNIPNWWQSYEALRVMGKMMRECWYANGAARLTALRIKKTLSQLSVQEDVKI
Experiment: TR-FRET enzymatic assay, ALK4 kinase, 1536-well
Type: biochemical
Settings: span of the concentration-response curve
Quantity kind: ALK4 Span
When you answer, write just the number.

# annotated cases, reported ALK4 Span shown
[
  {
    "Molecule": "Cc1cc(-c2cnn3cc(N4CCC(N5CCOCC5)CC4)cnc23)c2ccccc2n1 [Compound 11]",
    "ALK4 Span": 100.0
  },
  {
    "Molecule": "Cc1cc(-c2cnn3cc(N4CCC(N5CCNCC5)CC4)cnc23)c2ccccc2n1 [Compound 34]",
    "ALK4 Span": 101.1
  }
]

[ask] ALK4 Span for Cc1cc(-c2cnn3cc(N4CCC(N5CCN(C)CC5)CC4)cnc23)c2ccccc2n1 [Compound 8] ?
[reply] 96.6

[ask] ALK4 Span for COc1cc2c(-c3cnn4cc(N5CCC(N6CCN(C)CC6)CC5)cnc34)ccnc2cc1F [Compound 15] ?
[reply] 101
